target_or_system: T1, CXC chemokine receptor type 4 (CXCR4) (human, UniProt P61073 1-352)
T1 chain: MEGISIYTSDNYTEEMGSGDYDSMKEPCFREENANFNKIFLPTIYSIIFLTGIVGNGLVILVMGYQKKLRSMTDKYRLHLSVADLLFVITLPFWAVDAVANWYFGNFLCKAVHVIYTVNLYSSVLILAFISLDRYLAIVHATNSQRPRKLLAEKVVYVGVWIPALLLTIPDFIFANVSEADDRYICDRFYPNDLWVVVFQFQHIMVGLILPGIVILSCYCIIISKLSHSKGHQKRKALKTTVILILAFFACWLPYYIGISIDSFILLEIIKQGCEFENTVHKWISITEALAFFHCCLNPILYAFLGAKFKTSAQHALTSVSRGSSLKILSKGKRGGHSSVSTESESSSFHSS
procedure_summary: 12G5 antibody competition
Where no end group is shown, it is not given here. Side-chain parts run from the residue outwards. The star is where a group is joined. Palmitoyl = CCCCCCCCCCCCCCCC(=O)*; Glu = glutamate linker
Some binders, each annotated with its measured IC50.
Output spec: scalar in nM, unitless text.

Check out these entries, answers already filled in.
ILRWSRKLK([Glu-Palmitoyl])-NH2 [JM#193]: 3
ILRWSRKK-NH2 (not fully specified (residue 8)) [JM#191]: 3

## Task Find the measured IC50 of ILRWSRKLP-NH2 [JM#114] and report it.
## Result 268
